Each recorded value in this set is attributed to ChEMBL document CHEMBL3112507.

- Target Desc: Polyunsaturated fatty acid 5-lipoxygenase (Homo sapiens) (UniProt P09917)
- Assay Info: Inhibition of 5-LOX (unknown origin) using arachidonic acid as substrate at 0.1 uM after 5 mins by EIA
Result Type: inhibition (%)

Worked examples follow.
- Given Smiles: "Cc1ccc(S(=O)(=O)n2cc(C(=O)C(=O)N[C@H](Cc3c[nH]c4ccccc34)C(=O)O)c3ccccc32)cc1"
  Target Desc: "Polyunsaturated fatty acid 5-lipoxygenase (Homo sapiens) (UniProt P09917)"
  Numeric Value: 56.5
- Given Smiles: "COC(=O)[C@H]1CCCN1C(=O)C(=O)c1cn(S(=O)(=O)c2ccc(C)cc2)c2ccccc12"
  Target Desc: "Polyunsaturated fatty acid 5-lipoxygenase (Homo sapiens) (UniProt P09917)"
  Numeric Value: 48.7
- Given Smiles: "Cc1ccc(S(=O)(=O)n2cc(C(=O)C(=O)N3CCC[C@@H]3C(=O)O)c3ccccc32)cc1"
  Target Desc: "Polyunsaturated fatty acid 5-lipoxygenase (Homo sapiens) (UniProt P09917)"
  Numeric Value: 45

1: COC(=O)CC[C@@H](NC(=O)C(=O)c1c[nH]c2ccccc12)C(=O)OC
2: Cc1ccc(S(=O)(=O)n2cc(C(=O)C(=O)NCC(=O)O)c3ccccc32)cc1
Which record would sort first by descending inhibition, 1 or 2 ? Indicate which entry you chose by stating its label.
2
(2: 63.5%, 1: 40%)

====

- Target Desc: Polyunsaturated fatty acid 5-lipoxygenase (Homo sapiens) (UniProt P09917)
- Assay Info: Inhibition of 5-LOX (unknown origin) by UV-Vis spectrophotometry
Result Type: Ka (×10⁶ /M)

- Given Smiles: "COC(=O)CNC(=O)C(=O)c1cn(S(=O)(=O)c2ccc(C)cc2)c2ccccc12"
  Numeric Value: 2.32
- Given Smiles: "Cc1ccc(S(=O)(=O)n2cc(C(=O)C(=O)NCC(=O)O)c3ccccc32)cc1"
  Numeric Value: 2.07

====

- Target Desc: UniProt:P09917
- Assay Info: Inhibition of 5-LOX (unknown origin) using arachidonic acid as substrate at 10 uM after 5 mins by EIA
Result Type: inhibition (%)

- Given Smiles: "COC(=O)[C@@H](Cc1cnc[nH]1)NC(=O)C(=O)c1cn(S(=O)(=O)c2ccc(C)cc2)c2ccccc12"
  Value Unit: "%"
  inhibition: 58.2
- Given Smiles: "COC(=O)CC[C@@H](NC(=O)C(=O)c1c[nH]c2ccccc12)C(=O)OC"
  Value Unit: "%"
  inhibition: 51.2
- Given Smiles: "Cc1ccc(S(=O)(=O)n2cc(C(=O)C(=O)NCC(=O)O)c3ccccc32)cc1"
  Value Unit: "%"
  inhibition: 91.2
- Given Smiles: "COC(=O)[C@@H](Cc1c[nH]c2ccccc12)NC(=O)C(=O)c1c[nH]c2ccccc12"
  Value Unit: "%"
  inhibition: 49.8
- Given Smiles: "COC(=O)[C@@H](Cc1c[nH]c2ccccc12)NC(=O)C(=O)c1cn(S(=O)(=O)c2ccc(C)cc2)c2ccccc12"
  Value Unit: "%"
  inhibition: 75.5
- Given Smiles: "COC(=O)[C@H]1CCCN1C(=O)C(=O)c1c[nH]c2ccccc12"
  Value Unit: "%"
  inhibition: 59.8
- Given Smiles: "Cc1ccc(S(=O)(=O)n2cc(C(=O)C(=O)N3CCC[C@@H]3C(=O)O)c3ccccc32)cc1"
  Value Unit: "%"
  inhibition: 68.8

====

- Target Desc: Polyunsaturated fatty acid 5-lipoxygenase (Homo sapiens)
- Assay Info: Inhibition of 5-LOX (unknown origin) using arachidonic acid as substrate at 100 uM after 5 mins by EIA
Result Type: inhibition (%)

- Given Smiles: "Cc1ccc(S(=O)(=O)n2cc(C(=O)C(=O)N[C@H](CCC(=O)O)C(=O)O)c3ccccc32)cc1"
  Value Unit: "%"
  Numeric Value: 90.6
- Given Smiles: "COC(=O)[C@@H](Cc1c[nH]c2ccccc12)NC(=O)C(=O)c1c[nH]c2ccccc12"
  Value Unit: "%"
  Numeric Value: 65
- Given Smiles: "Cc1ccc(S(=O)(=O)n2cc(C(=O)C(=O)N3CCC[C@@H]3C(=O)O)c3ccccc32)cc1"
  Value Unit: "%"
  Numeric Value: 74.3
- Given Smiles: "COC(=O)CC[C@@H](NC(=O)C(=O)c1cn(S(=O)(=O)c2ccc(C)cc2)c2ccccc12)C(=O)OC"
  Value Unit: "%"
  Numeric Value: 65
- Given Smiles: "COC(=O)[C@H]1CCCN1C(=O)C(=O)c1cn(S(=O)(=O)c2ccc(C)cc2)c2ccccc12"
  Value Unit: "%"
  Numeric Value: 72
- Given Smiles: "COC(=O)[C@@H](Cc1cnc[nH]1)NC(=O)C(=O)c1c[nH]c2ccccc12"
  Value Unit: "%"
  Numeric Value: 65
- Given Smiles: "Cc1ccc(S(=O)(=O)n2cc(C(=O)C(=O)N[C@H](Cc3cnc[nH]3)C(=O)O)c3ccccc32)cc1"
  Value Unit: "%"
  Numeric Value: 64.7
- Given Smiles: "COC(=O)CNC(=O)C(=O)c1cn(S(=O)(=O)c2ccc(C)cc2)c2ccccc12"
  Value Unit: "%"
  Numeric Value: 98
- Given Smiles: "COC(=O)[C@@H](Cc1cnc[nH]1)NC(=O)C(=O)c1cn(S(=O)(=O)c2ccc(C)cc2)c2ccccc12"
  Value Unit: "%"
  Numeric Value: 63.8
- Given Smiles: "COC(=O)[C@H]1CCCN1C(=O)C(=O)c1c[nH]c2ccccc12"
  Value Unit: "%"
  Numeric Value: 60.6
- Given Smiles: "COC(=O)[C@@H](Cc1c[nH]c2ccccc12)NC(=O)C(=O)c1cn(S(=O)(=O)c2ccc(C)cc2)c2ccccc12"
  Value Unit: "%"
  Numeric Value: 80.4
- Given Smiles: "Cc1ccc(S(=O)(=O)n2cc(C(=O)C(=O)N[C@H](Cc3c[nH]c4ccccc34)C(=O)O)c3ccccc32)cc1"
  Value Unit: "%"
  Numeric Value: 85

====

- Target Desc: Polyunsaturated fatty acid 5-lipoxygenase (Homo sapiens)
- Assay Info: Inhibition of 5-LOX (unknown origin) using arachidonic acid as substrate after 5 mins by EIA in presence of pig liver esterase
Result Type: IC50 (nM)

I: COC(=O)[C@@H](Cc1c[nH]c2ccccc12)NC(=O)C(=O)c1cn(S(=O)(=O)c2ccc(C)cc2)c2ccccc12
II: COC(=O)[C@@H](Cc1cnc[nH]1)NC(=O)C(=O)c1cn(S(=O)(=O)c2ccc(C)cc2)c2ccccc12
III: COC(=O)CNC(=O)C(=O)c1cn(S(=O)(=O)c2ccc(C)cc2)c2ccccc12
Please put the 3 compounds above in a list ordered by falling IC50. Output spec: labels arranged per the requested ranking.
II, I, III

====

- Target Desc: Polyunsaturated fatty acid 5-lipoxygenase (Homo sapiens)
- Sequence (whole entry): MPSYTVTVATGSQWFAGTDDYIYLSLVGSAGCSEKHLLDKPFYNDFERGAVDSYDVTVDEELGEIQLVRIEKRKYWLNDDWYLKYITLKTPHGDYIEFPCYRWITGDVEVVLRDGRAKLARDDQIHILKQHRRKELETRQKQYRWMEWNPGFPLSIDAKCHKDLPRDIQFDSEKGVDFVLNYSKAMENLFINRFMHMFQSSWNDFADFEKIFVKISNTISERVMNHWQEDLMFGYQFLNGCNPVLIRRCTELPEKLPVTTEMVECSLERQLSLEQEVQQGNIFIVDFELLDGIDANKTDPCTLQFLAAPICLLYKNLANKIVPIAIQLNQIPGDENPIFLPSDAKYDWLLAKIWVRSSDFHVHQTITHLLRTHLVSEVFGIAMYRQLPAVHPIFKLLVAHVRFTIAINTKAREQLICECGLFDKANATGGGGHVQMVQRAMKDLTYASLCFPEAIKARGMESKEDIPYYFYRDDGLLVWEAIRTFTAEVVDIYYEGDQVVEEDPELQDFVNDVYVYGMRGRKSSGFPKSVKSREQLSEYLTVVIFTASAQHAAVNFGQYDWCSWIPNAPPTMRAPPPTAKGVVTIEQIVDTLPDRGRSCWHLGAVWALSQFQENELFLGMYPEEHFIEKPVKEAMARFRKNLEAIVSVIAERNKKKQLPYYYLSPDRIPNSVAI
- Assay Info: Inhibition of 5-LOX (unknown origin) using arachidonic acid as substrate at 0.1 uM after 5 mins by EIA
Result Type: inhibition (%)

- Given Smiles: "COC(=O)CNC(=O)C(=O)c1cn(S(=O)(=O)c2ccc(C)cc2)c2ccccc12"
  Value Unit: "%"
  inhibition: 51.5
- Given Smiles: "Cc1ccc(S(=O)(=O)n2cc(C(=O)C(=O)N[C@H](CCC(=O)O)C(=O)O)c3ccccc32)cc1"
  Value Unit: "%"
  inhibition: 50.5
- Given Smiles: "COC(=O)[C@@H](Cc1c[nH]c2ccccc12)NC(=O)C(=O)c1c[nH]c2ccccc12"
  Value Unit: "%"
  inhibition: 41.1
